# collection of pKi values tested on UniProtKB P14842
# Sequence (P14842 whole entry): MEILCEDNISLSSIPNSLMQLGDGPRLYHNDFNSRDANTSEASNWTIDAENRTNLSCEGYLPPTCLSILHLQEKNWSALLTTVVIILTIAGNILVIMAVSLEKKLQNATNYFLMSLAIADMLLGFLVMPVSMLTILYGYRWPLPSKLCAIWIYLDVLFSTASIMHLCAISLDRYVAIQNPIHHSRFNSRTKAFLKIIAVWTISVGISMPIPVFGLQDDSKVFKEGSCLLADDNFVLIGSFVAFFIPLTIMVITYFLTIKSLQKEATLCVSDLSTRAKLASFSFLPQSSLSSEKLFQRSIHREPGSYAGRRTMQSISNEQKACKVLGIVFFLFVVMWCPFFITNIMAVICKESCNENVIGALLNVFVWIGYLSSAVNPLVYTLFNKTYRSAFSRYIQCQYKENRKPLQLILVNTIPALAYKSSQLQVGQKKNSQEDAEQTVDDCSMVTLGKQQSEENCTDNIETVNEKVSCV
// pKi: -log10(molar conc.)

Consider the worked cases shown below.
- molecule: "COc1cccc2c1[C@@H]1CN(CCNC(=O)c3ccc(F)cc3)C[C@H]1CO2 (relative stereo)"
  pKi: 7.02
- molecule: "Cl.c1ccc(CN2C[C@@H]3COc4ccccc4[C@@H]3C2)cc1 (relative stereo) [Example 12, hydrochloride]"
  pKi: 5.45
- molecule: "COc1cccc2c1[C@H]1CN(Cc3ccccc3)C[C@H]1CO2 (relative stereo)"
  pKi: 6.41

Item: Cl.c1ccc2c3c(ccc2c1)OC[C@@H]1CNC[C@H]31 (relative stereo) [Example 38, hydrochloride] | System: UniProtKB P14842 | pKi: 7.01

Item: Cn1ccc2cc(NC(=O)Nc3cccnc3)ccc21 [SB 200,646, reference compound] | System: UniProtKB P14842 | pKi: 5.88

Item: CCCN1C[C@@H]2COc3cccc(OC)c3[C@H]2C1 (relative stereo) | System: UniProtKB P14842 | pKi: 5.76

Item: Clc1ccc2c(c1)[C@H]1CN(Cc3ccccc3)C[C@H]1CO2 (relative stereo) | System: UniProtKB P14842 | pKi: 6.97

---

system.under.test: 5-HT2C receptors (Sus scrofa, UniProt K7GSR7)
Construct: pig cerebral plexus; from tissue; host or cells: pig cerebral plexus (own knowledge: choroid plexus)
Sequence (K7GSR7 1-457): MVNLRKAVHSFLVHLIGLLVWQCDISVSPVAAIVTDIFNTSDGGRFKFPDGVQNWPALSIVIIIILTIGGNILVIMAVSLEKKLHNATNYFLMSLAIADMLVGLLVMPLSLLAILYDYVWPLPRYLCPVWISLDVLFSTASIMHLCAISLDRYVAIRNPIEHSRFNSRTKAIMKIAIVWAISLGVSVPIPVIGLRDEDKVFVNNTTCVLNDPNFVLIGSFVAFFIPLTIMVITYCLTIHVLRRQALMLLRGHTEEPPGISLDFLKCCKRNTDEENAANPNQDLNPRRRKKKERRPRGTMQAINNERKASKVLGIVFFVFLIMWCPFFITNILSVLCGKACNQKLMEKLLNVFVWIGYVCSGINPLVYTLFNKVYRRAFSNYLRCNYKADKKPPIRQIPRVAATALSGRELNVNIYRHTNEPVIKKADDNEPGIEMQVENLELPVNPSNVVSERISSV
assay.overview: biochemical
Assay type: binding, pig
condition.notes: 5-HT2C Ki (nM), pig cerebral plexus, [3H]-mesulergine 1.0 nM; average of two to four determinations
Each record is given yes if its reported Ki is strictly below 400 nM. Records at or above 400 nM are given no.

- compound: "COc1cccc2c1[C@H]1CN(Cc3ccccc3)C[C@H]1CO2 (relative stereo)"
  system.under.test: "5-HT2C receptors (Sus scrofa, UniProt K7GSR7)"
  label: "yes"
- compound: "COc1cccc2c1[C@@H]1CN(CCNC(=O)c3ccc(F)cc3)C[C@H]1CO2 (relative stereo)"
  system.under.test: "5-HT2C receptors (Sus scrofa, UniProt K7GSR7)"
  label: "yes"
- compound: "Cl.c1ccc2c(c1)OC[C@H]1CNC[C@@H]21 (relative stereo) [Example 13, hydrochloride]"
  system.under.test: "5-HT2C receptors (Sus scrofa, UniProt K7GSR7)"
  label: "no"

query: Ki strictly < 400 nM for this compound? Cl.c1ccc(CN2C[C@H]3COc4c(ccc5ccccc45)[C@@H]3C2)cc1 (relative stereo) [Example 34, hydrochloride]
result: no

query: Ki strictly < 400 nM for this compound? COc1ccc2c(c1)[C@H]1CN(Cc3ccccc3)C[C@@H]1CO2.Cl (relative stereo) [Example 9, hydrochloride]
result: no

query: Ki strictly < 400 nM for this compound? COc1cccc2c1[C@H]1CNC[C@@H]1CO2.Cl (relative stereo) [Example 4, hydrochloride]
result: no

query: Ki strictly < 400 nM for this compound? Clc1ccc2c(c1)[C@H]1CN(Cc3ccccc3)C[C@H]1CO2 (relative stereo)
result: yes

query: Ki strictly < 400 nM for this compound? COc1ccc2c(c1)OC[C@H]1CN(Cc3ccccc3)C[C@H]21.Cl (relative stereo) [Example 22, hydrochloride]
result: no

query: Ki strictly < 400 nM for this compound? Cl.c1ccc(CN2C[C@@H]3COc4ccccc4[C@@H]3C2)cc1 (relative stereo) [Example 12, hydrochloride]
result: no

query: Ki strictly < 400 nM for this compound? Cl.c1ccc2c3c(ccc2c1)OC[C@@H]1CNC[C@H]31 (relative stereo) [Example 38, hydrochloride]
result: yes

query: Ki strictly < 400 nM for this compound? Cn1ccc2cc(NC(=O)Nc3cccnc3)ccc21 [SB 200,646, reference compound]
result: yes
